Target: αLβ2/ICAM-1 (Homo sapiens, UniProt P05107+P20701)
Construct: The Jurkat (VCAM-1 assays) and HSB (ICAM-1 assays) cell lines were obtained from American Type Culture Collection; endogenous in cells; host or cells: HSB (ATCC)
Sequence (P20701 26-1170): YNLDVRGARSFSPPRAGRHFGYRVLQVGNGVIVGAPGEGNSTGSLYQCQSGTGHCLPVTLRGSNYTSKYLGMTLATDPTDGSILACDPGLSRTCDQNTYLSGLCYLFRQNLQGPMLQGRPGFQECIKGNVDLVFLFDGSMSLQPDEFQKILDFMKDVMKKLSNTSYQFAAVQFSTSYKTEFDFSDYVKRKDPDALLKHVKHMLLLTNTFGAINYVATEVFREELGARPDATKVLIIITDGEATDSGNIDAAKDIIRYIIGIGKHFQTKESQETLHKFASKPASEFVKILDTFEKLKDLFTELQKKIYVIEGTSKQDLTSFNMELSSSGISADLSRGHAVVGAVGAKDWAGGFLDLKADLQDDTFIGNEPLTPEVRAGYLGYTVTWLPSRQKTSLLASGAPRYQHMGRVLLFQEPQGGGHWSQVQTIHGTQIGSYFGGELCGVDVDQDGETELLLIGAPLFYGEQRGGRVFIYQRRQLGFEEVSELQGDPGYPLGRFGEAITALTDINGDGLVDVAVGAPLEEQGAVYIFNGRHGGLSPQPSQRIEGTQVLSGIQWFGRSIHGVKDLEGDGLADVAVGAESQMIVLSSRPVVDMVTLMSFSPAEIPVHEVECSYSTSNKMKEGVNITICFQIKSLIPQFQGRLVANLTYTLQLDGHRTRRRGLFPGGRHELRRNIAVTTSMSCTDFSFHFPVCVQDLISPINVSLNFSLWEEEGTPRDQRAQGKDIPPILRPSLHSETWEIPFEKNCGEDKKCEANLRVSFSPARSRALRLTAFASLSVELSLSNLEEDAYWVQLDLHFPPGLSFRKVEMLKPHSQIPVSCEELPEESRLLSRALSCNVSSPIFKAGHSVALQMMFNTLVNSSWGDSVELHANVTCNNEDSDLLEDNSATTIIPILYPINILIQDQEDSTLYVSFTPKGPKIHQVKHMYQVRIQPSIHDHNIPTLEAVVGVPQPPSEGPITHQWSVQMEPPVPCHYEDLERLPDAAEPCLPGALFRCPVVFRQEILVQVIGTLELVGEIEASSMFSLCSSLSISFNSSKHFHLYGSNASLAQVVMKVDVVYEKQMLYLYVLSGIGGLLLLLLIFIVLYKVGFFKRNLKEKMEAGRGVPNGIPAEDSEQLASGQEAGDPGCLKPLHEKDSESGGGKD
Sequence (P05107 23-769): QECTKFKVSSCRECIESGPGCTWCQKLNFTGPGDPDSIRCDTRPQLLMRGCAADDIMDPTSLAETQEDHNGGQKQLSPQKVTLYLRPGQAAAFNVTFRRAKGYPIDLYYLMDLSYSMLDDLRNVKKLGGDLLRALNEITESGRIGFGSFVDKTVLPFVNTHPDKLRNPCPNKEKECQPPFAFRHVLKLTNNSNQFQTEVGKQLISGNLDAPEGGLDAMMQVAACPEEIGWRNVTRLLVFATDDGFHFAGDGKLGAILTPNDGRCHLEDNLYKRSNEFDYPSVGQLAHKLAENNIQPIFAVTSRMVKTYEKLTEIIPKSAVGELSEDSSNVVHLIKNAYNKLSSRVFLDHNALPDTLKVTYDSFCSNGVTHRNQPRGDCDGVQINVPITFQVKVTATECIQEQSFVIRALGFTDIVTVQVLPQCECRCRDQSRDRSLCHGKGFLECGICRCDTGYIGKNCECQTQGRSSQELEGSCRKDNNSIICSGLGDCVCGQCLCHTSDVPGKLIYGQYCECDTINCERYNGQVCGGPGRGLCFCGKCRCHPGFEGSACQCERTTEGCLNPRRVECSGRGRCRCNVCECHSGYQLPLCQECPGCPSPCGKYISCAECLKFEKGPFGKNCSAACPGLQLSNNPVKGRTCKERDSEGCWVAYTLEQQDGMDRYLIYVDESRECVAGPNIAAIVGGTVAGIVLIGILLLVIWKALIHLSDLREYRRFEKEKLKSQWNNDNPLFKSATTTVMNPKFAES
Experiment: Static cell adhesion assay, HSB cells on ICAM-1 (LFA-1; LAD)
Format: cell-based
Details: RFU of compound / RFU of THI0349, both at the same concentration
assay-metric: LAD Raw Fluorescence Units against LFA-1; Dose 3 µM; Ratio of raw counts Compound/THI0349
Numbers only.

Below: 5 molecules and their reported LAD Raw Fluorescence Units against LFA-1; Dose 3 µM; Ratio of raw counts Compound/THI0349.
In [3]: df
Out[3]:
                            smiles_notation  test_value
0  COc1ccc(CCc2csc(N(Cc3cccc(OC)c3)Cc3cccc(OC)c3)n2)cc1         0.1
1  COc1ccc(CCNC(=O)c2coc(N(Cc3cccc(OC)c3)Cc3cccc(OC)c3)n2)cc1        0.12
2  COc1cccc(CN(Cc2cccc(OC)c2)c2cnc(CCOc3ccccc3)o2)c1        0.28
3  COc1cccc(CN(Cc2cccc(-n3cccn3)c2)c2nc(CN3CCOCC3)cs2)c1        0.53
4  COc1cccc(CN(Cc2cccc(OC)c2)c2nc(COCCOCCOCc3ccccc3Cl)cs2)c1         1.2

Dear colleague, could you please provide LAD Raw Fluorescence Units against LFA-1; Dose 3 µM; Ratio of raw counts Compound/THI0349 for the molecules listed below?
1. COc1ccc(CCCOCc2csc(N(Cc3cccc(OC)c3)Cc3cccc(OC)c3)n2)cc1
2. COc1cccc(CN(Cc2cccc(OC)c2)c2nc(COCCOCc3ccccc3Cl)cs2)c1
3. CCOC(=O)c1cnc(N(Cc2cccc(OC)c2)Cc2cccc(OC)c2)nc1

Result:
0.23
1.0
0.08

Recorded values, source patent US20240360113A1.
